Each entry below carries its recorded residual activity.
Molecular target: CDK1 CCNB1 (human) (UniProt P06493+P14635)
Sequence (P06493 whole entry, looked up): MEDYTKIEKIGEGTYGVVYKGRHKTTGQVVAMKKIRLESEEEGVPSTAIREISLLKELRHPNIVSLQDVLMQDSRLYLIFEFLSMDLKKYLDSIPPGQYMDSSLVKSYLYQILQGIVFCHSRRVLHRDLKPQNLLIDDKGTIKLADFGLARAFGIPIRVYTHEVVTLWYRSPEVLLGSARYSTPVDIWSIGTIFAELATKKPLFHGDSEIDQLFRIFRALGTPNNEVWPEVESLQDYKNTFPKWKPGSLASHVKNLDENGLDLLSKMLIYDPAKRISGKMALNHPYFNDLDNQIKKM
Sequence (P14635 whole entry, looked up): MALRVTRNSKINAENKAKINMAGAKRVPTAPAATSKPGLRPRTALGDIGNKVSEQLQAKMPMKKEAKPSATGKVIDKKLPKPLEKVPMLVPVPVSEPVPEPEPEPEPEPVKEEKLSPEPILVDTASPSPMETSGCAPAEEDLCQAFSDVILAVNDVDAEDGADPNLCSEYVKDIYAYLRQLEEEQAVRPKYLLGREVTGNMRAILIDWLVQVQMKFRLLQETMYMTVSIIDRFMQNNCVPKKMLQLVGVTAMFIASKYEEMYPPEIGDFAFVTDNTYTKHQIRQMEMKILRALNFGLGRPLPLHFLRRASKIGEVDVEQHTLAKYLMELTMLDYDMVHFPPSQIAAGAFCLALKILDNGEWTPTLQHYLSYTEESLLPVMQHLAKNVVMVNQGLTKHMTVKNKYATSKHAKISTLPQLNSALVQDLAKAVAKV
Assay: radiometric filter-binding kinase assay, Kinase HotSpot
Settings: compound 0.5 µM; ATP 10 µM
Unit % implied. Number only.

Past entries and their recorded results:
O=C1NC(=O)c2c1c1c3ccccc3n3c1c1c2c2ccccc2n1C1CCC3O1 29.9
CC[n+]1c(/C=C/N(C)c2ccccc2)n(-c2ccccc2)c2ccc(-c3nc4ccccc4s3)cc21 105
CNC(=O)c1cc(Oc2ccc(NC(=O)Nc3ccc(Cl)c(C(F)(F)F)c3)cc2)ccn1 98.5
Cc1ccc(S(=O)(=O)/C=C/C#N)cc1 92.3
Nc1ncnc2c1c(-c1ccc(Oc3ccccc3)cc1)cn2C1CCCC1 110

Form field: reported residual activity of O=C(Nc1cccc(Nc2nccc(Nc3cccc(C(F)(F)F)c3)n2)c1)C1CC1 89.3

Hello, the source for this data is the kinase profiling compilation of Christmann-Franck et al. (2016), in case you need it.
